The measurements presented in this section are drawn from the Human Domainome abundance scans (Beltran et al. 2025).

Exercise: state measured abundance fitness for each of the variants provided.
B1: Lysine-specific demethylase 5C, residues 319 to 373; numbered along this chain, P41229 (parent)
chain: AQFIESYVCRMCSRGDEDDKLLLCDGCDDNYHIFCLLPPLPEIPKGVWRCPKCVM

# Variants of: B1
# Protocol Notes: abundance fitness (aPCA) (normalised: wild type 0, dead -1); higher = more abundant; growth selection in yeast, the domain comes from the species named
# Measurement Setup: Homo sapiens

Mutation Name: E17V
abundance fitness: 0.22
--
Mutation Name: L23S
abundance fitness: 0.148
--
Mutation Name: D29G
abundance fitness: -0.077
--
Mutation Name: D19I
abundance fitness: -0.198
--
Mutation Name: D16S
abundance fitness: 0.104
--
Mutation Name: D25E
abundance fitness: -0.246

Hi there! I need abundance fitness for each item below, if you can.
1. L23H
2. D19T
3. D29E
4. N30G
5. D19M
6. D28T
7. S13I
8. Y7E

-0.302
0.242
0.017
0.052
-0.254
-0.494
-0.029
0.193

Hi there! I need abundance fitness for each item below, if you can.
1. K20L
2. F3A
3. D16W
4. L21R
5. V8T

1: -0.087; 2: -0.12; 3: -0.351; 4: -0.221; 5: -0.039

Hi there! I need abundance fitness for each item below, if you can.
1. L21T
2. E17G
3. Y7T
4. S13E
5. G26K

1. -0.164
2. 0.023
3. 0.199
4. 0.419
5. 0.133

Hi there! I need abundance fitness for each item below, if you can.
1. N30M
2. Y7D
3. E5R
4. E5K
5. E5I

[-0.206, 0.173, 0.046, 0.036, -0.283]

Hi there! I need abundance fitness for each item below, if you can.
1. L21H
2. E5M
3. K20V
4. M11D
5. S13T
6. Y31C
7. F3N

[-0.458, 0.145, -0.253, -0.063, -0.035, -0.514, 0.182]

Hi there! I need abundance fitness for each item below, if you can.
1. D19K
2. L23D
3. D19C
4. R10M

1: 0.064; 2: 0.084; 3: 0.019; 4: -0.036

Hi there! I need abundance fitness for each item below, if you can.
1. L23F
2. C35A
3. N30Q
4. L23G
5. C27W
6. H32E

-0.405
-0.83
0.157
-0.086
-1.06
-0.945
